Task for the reader: assign each of the following molecules its reported TC-32 Ewing sarcoma EWS-FLI1 Type 1 GI50.
# Test system: TC-32 (Ewing sarcoma, EWS-FLI1 Type 1) cell line
# condition.parameters: 72 h growth inhibition, TC-32 cells
One number for each entry, in nM.

What does the data say about its TC-32 Ewing sarcoma EWS-FLI1 Type 1 GI50? Entry: COC(=O)C(Cc1c[nH]c2cc(F)ccc12)NC(=O)C(OC)C1Cc2cc3cc(OC4CC(OC5CC(O)C(O)C(C)O5)C(O)C(C)O4)c(C)c(O)c3c(O)c2C(=O)C1OC1CC(OC2CC(OC3CC(C)(O)C(O)C(C)O3)C(O)C(C)O2)C(O)C(C)O1 (centres unmarked)
27

What does the data say about its TC-32 Ewing sarcoma EWS-FLI1 Type 1 GI50? Entry: COC(=O)C(Cc1cn(C)c2ccccc12)NC(=O)C(OC)C1Cc2cc3cc(OC4CC(OC5CC(O)C(O)C(C)O5)C(O)C(C)O4)c(C)c(O)c3c(O)c2C(=O)C1OC1CC(OC2CC(OC3CC(C)(O)C(O)C(C)O3)C(O)C(C)O2)C(O)C(C)O1 (centres unmarked)
139

What does the data say about its TC-32 Ewing sarcoma EWS-FLI1 Type 1 GI50? Entry: COC(=O)C(Cc1c[nH]c2cc3ccccc3cc12)NC(=O)C(OC)C1Cc2cc3cc(OC4CC(OC5CC(O)C(O)C(C)O5)C(O)C(C)O4)c(C)c(O)c3c(O)c2C(=O)C1OC1CC(OC2CC(OC3CC(C)(O)C(O)C(C)O3)C(O)C(C)O2)C(O)C(C)O1 (centres unmarked)
3505

What does the data say about its TC-32 Ewing sarcoma EWS-FLI1 Type 1 GI50? Entry: COC(=O)C(Cc1c[nH]c2cc(-n3cc(-c4ccccc4)nn3)ccc12)NC(=O)C(OC)C1Cc2cc3cc(OC4CC(OC5CC(O)C(O)C(C)O5)C(O)C(C)O4)c(C)c(O)c3c(O)c2C(=O)C1OC1CC(OC2CC(OC3CC(C)(O)C(O)C(C)O3)C(O)C(C)O2)C(O)C(C)O1 (centres unmarked)
1030

What does the data say about its TC-32 Ewing sarcoma EWS-FLI1 Type 1 GI50? Entry: C=CCOc1ccc2[nH]cc(CC(NC(=O)C(OC)C3Cc4cc5cc(OC6CC(OC7CC(O)C(O)C(C)O7)C(O)C(C)O6)c(C)c(O)c5c(O)c4C(=O)C3OC3CC(OC4CC(OC5CC(C)(O)C(O)C(C)O5)C(O)C(C)O4)C(O)C(C)O3)C(=O)OC)c2c1 (centres unmarked)
53

Please report TC-32 Ewing sarcoma EWS-FLI1 Type 1 GI50 for every entry that follows.
1. COC(=O)C(Cc1cn(C)c2ccccc12)NC(=O)C(Cc1cn(C)c2ccccc12)NC(=O)C(OC)C1Cc2cc3cc(OC4CC(OC5CC(O)C(O)C(C)O5)C(O)C(C)O4)c(C)c(O)c3c(O)c2C(=O)C1OC1CC(OC2CC(OC3CC(C)(O)C(O)C(C)O3)C(O)C(C)O2)C(O)C(C)O1 (centres unmarked)
2. COC(=O)C(Cc1c[nH]c2ccccc12)NC(=O)C(Cc1ccccc1)NC(=O)C(OC)C1Cc2cc3cc(OC4CC(OC5CC(O)C(O)C(C)O5)C(O)C(C)O4)c(C)c(O)c3c(O)c2C(=O)C1OC1CC(OC2CC(OC3CC(C)(O)C(O)C(C)O3)C(O)C(C)O2)C(O)C(C)O1 (centres unmarked)
3. C=CCn1cc(CC(NC(=O)C(OC)C2Cc3cc4cc(OC5CC(OC6CC(O)C(O)C(C)O6)C(O)C(C)O5)c(C)c(O)c4c(O)c3C(=O)C2OC2CC(OC3CC(OC4CC(C)(O)C(O)C(C)O4)C(O)C(C)O3)C(O)C(C)O2)C(=O)OC)c2ccccc21 (centres unmarked)

1. 7834
2. 47
3. 2715

Please report TC-32 Ewing sarcoma EWS-FLI1 Type 1 GI50 for every entry that follows.
1. COC(=O)C(Cc1c[nH]c2ccc([N+](=O)[O-])cc12)NC(=O)C(OC)C1Cc2cc3cc(OC4CC(OC5CC(O)C(O)C(C)O5)C(O)C(C)O4)c(C)c(O)c3c(O)c2C(=O)C1OC1CC(OC2CC(OC3CC(C)(O)C(O)C(C)O3)C(O)C(C)O2)C(O)C(C)O1 (centres unmarked)
2. COC(=O)C(Cc1ccccc1)NC(=O)C(Cc1ccccc1)NC(=O)C(OC)C1Cc2cc3cc(OC4CC(OC5CC(O)C(O)C(C)O5)C(O)C(C)O4)c(C)c(O)c3c(O)c2C(=O)C1OC1CC(OC2CC(OC3CC(C)(O)C(O)C(C)O3)C(O)C(C)O2)C(O)C(C)O1 (centres unmarked)
3. C=CCc1cccc2c(CC(NC(=O)C(OC)C3Cc4cc5cc(OC6CC(OC7CC(O)C(O)C(C)O7)C(O)C(C)O6)c(C)c(O)c5c(O)c4C(=O)C3OC3CC(OC4CC(OC5CC(C)(O)C(O)C(C)O5)C(O)C(C)O4)C(O)C(C)O3)C(=O)OC)c[nH]c12 (centres unmarked)
4. COC(=O)C(Cc1cn(Cc2ccccc2)c2ccccc12)NC(=O)C(OC)C1Cc2cc3cc(OC4CC(OC5CC(O)C(O)C(C)O5)C(O)C(C)O4)c(C)c(O)c3c(O)c2C(=O)C1OC1CC(OC2CC(OC3CC(C)(O)C(O)C(C)O3)C(O)C(C)O2)C(O)C(C)O1 (centres unmarked)
5. COC(=O)C(Cc1c[nH]c2ccccc12)NC(=O)C(OC)C1Cc2cc3cc(OC4CC(OC5CC(O)C(O)C(C)O5)C(O)C(C)O4)c(C)c(O)c3c(O)c2C(=O)C1OC1CC(OC2CC(OC3CC(C)(O)C(O)C(C)O3)C(O)C(C)O2)C(O)C(C)O1 (centres unmarked) [MTMSA-Trp (3), Mithramycin SA-Tryptophan, reference compound]

353
232
794
2297
16
